Tested on: HEK-293T
Experiment Description: Multiplex assay against HEK293T
Format: toxicity, cell-based
Experimental Context: human, 12 h, 10 µM, compound concentration 10 uM, replicate 2
Decide using Population Normal (%): a value greater than or equal to 80% is True, a smaller one is False.

Some solved entries appear below for comparison.
> print(dat)
                                   compound  system.name  group
1       O=C(CCCc1ccccc1)Nc1nc2ccccc2c(=O)s1     HEK-293T  False
2  CC(=O)Nc1cccc2c1c(Sc1ccc(Cl)cc1)c(C)n2CC(=O)O     HEK-293T   True
3  Cc1onc(-c2ccccc2Cl)c1C(=O)N(C)c1ccc(Cl)cc1     HEK-293T   True
4  O=C(NCCN1CCC(n2c(=O)[nH]c3cc(Cl)ccc32)CC1)c1ccc(F)cc1 [HALOPEMIDE]     HEK-293T   True

Textbook exercise: given the entry CC(C)c1noc(N2CCC(COc3ccc(-c4ccc(S(C)(=O)=O)cc4)nc3)CC2)n1 , state whether its Population Normal (%) is greater than or equal to 80%.
True

Decide: is the reported value of Population Normal (%) for N#Cc1cc(F)cc(-c2nc(-c3ccc(F)cn3)no2)c1 equal to or greater than 80%?
True

Does Population Normal (%) meet or surpass 80% for NCCc1cn(S(=O)(=O)c2c(Cl)nc3sccn23)c2ccccc12.O=C(O)C(=O)O ?
False

Determine whether this compound has Population Normal (%) no lower than 80%: Cl.N=C(N)NC(=O)Cc1c(Cl)cccc1Cl [GUANFACINE HYDROCHLORIDE]
True

###

Tested on: HEK-293T
Experiment Description: Multiplex assay against HEK293T
Assay type: toxicity, cell-based
Experimental Context: human, 12 h, 1 µM, compound concentration 1 uM, replicate 1
Experimental Readout: Population Hoechst High Intensity Objects (%)

Known results for compounds:
> print(dat)
                                   compound  result
1  Cc1c(CC(=O)O)c2cccnc2n1Cc1ccc(S(C)(=O)=O)cc1C(F)(F)F [FEVIPIPRANT]      5%
2         CN1CCN(c2cc(-c3ccccc3)nc(N)n2)CC1      6%
3  COc1ccccc1N1CCN(C[C@@H](C(=O)NC(C)(C)C)c2ccccc2)CC1.Cl.Cl      7%
4  CCc1cc2cc(NS(=O)(=O)c3ccc(C#N)cc3)ccc2n(CC)c1=O      9%
5  CC(C)(C)c1cc(NC(=O)Nc2ccc(-c3cn4c(n3)sc3cc(OCCN5CCOCC5)ccc34)cc2)no1 [QUIZARTINIB]     10%

For reference, reported Population Hoechst High Intensity Objects (%) for N#Cc1cc(F)cc(-c2nc(-c3ccc(F)cn3)no2)c1 stands at 5%

# Population Hoechst High Intensity Objects (%) (compound: Cc1onc(-c2ccccc2Cl)c1C(=O)N(C)c1ccc(Cl)cc1 ) is 9%

So, Cc1noc(-c2ccc(-c3ccc(CC(=O)O)cc3)cc2)c1NC(=O)O[C@H](C)c1ccccc1Cl ? Its Population Hoechst High Intensity Objects (%) was 5%

Summary for this compound, N#Cc1c(Oc2cccc(OS(=O)(=O)CCCC(F)(F)F)c2)cccc1C(F)(F)F : Population Hoechst High Intensity Objects (%) is 5%

###

Tested on: HEK-293T
Experiment Description: Multiplex assay against HEK293T
Type: toxicity, cell-based
Experimental Context: human, 12 h, 10 µM, compound concentration 10 uM, replicate 2
Population Tubulin-Different-Phenotype (%) vs 40%: less than gives Condition met; not less than gives Condition not met.

> print(dat)
                                   compound  system.name              group
1  COc1ccccc1N1CCN(C[C@@H](C(=O)NC(C)(C)C)c2ccccc2)CC1.Cl.Cl     HEK-293T  Condition not met
2  CC(C)(C)c1cc(NC(=O)Nc2ccc(-c3cn4c(n3)sc3cc(OCCN5CCOCC5)ccc34)cc2)no1 [QUIZARTINIB]     HEK-293T  Condition not met
3  CN[C@@H](C)C(=O)N[C@H](C(=O)N1CCC[C@H]1C(=O)Nc1snnc1-c1ccccc1)C1CCCCC1 [GDC-0152]     HEK-293T  Condition not met
4  Cc1onc(-c2ccccc2Cl)c1C(=O)N(C)c1ccc(Cl)cc1     HEK-293T      Condition met
5  COc1cccc2c1c(NS(=O)(=O)c1ccc(Cl)s1)nn2Cc1cccc(CNC(=O)C(C)(C)O)c1     HEK-293T      Condition met

Please let me know if Cc1c(CC(=O)O)c2cccnc2n1Cc1ccc(S(C)(=O)=O)cc1C(F)(F)F [FEVIPIPRANT] shows Population Tubulin-Different-Phenotype (%) below 40%.
Condition met

Population Tubulin-Different-Phenotype (%) strictly < 40% for this compound? CC(C)COc1ccc(CNC(=O)N(Cc2ccc(F)cc2)C2CCN(C)CC2)cc1 [PIMAVANSERIN]
Condition not met

###

Measured Population Mitotic Cells (%) accompanies every entry in the list below.
Tested on: HEK-293T
Experiment Description: Multiplex assay against HEK293T
Assay type: toxicity, cell-based
Experimental Context: human, 24 h, 1 µM, compound concentration 1 uM, replicate 1
Could you write the number and then its unit?

> print(dat)
                                   compound          experimental.readout  result
1  O=C(NCCN1CCC(n2c(=O)[nH]c3cc(Cl)ccc32)CC1)c1ccc(F)cc1 [HALOPEMIDE]  Population Mitotic Cells (%)     59%
2  CC(/C=C1\SC(=S)N(CCCC(=O)Nc2ccc(C(=O)O)c(O)c2)C1=O)=C\c1ccccc1  Population Mitotic Cells (%)     72%
3  COC[C@@H](c1ccc(C(F)(F)F)cc1)N1CCN(C2(C)CCN(C(=O)c3c(C)ncnc3C)CC2)C[C@@H]1C.O=C(O)/C=C\C(=O)O [VICRIVIROC MALEATE]  Population Mitotic Cells (%)     69%
4  Cc1onc(-c2ccccc2Cl)c1C(=O)N(C)c1ccc(Cl)cc1  Population Mitotic Cells (%)     76%
5  COc1ccccc1N1CCN(C[C@@H](C(=O)NC(C)(C)C)c2ccccc2)CC1.Cl.Cl  Population Mitotic Cells (%)     80%

Record CC(C)COc1ccc(CNC(=O)N(Cc2ccc(F)cc2)C2CCN(C)CC2)cc1 [PIMAVANSERIN] , field Population Mitotic Cells (%): 66%

# compound Cc1cccc(NC(=O)CN2CCC(c3ccccn3)CC2)c1.Cl.Cl ; its Population Mitotic Cells (%) = 67%

# Population Mitotic Cells (%) of C[C@H](N)COC(=O)[C@@H](CCCCN)NC(=O)Cc1c(-c2ccc3ccccc3c2)[nH]c2c1ccc1ccccc12 = 75%

###

Catalogue of compounds with associated Population Normal (%)
Tested on: HEK-293T
Experiment Description: Multiplex assay against HEK293T
Type: toxicity, cell-based
Experimental Context: human, 48 h, 1 µM, compound concentration 1 uM, replicate 1
Kindly provide the numeric value in % only, without the unit symbol.

Compound	Number
Cl.NCCc1ccc(O)c(O)c1 [DOPAMINE HYDROCHLORIDE]	95
O=C(NCCN1CCC(n2c(=O)[nH]c3cc(Cl)ccc32)CC1)c1ccc(F)cc1 [HALOPEMIDE]	98
Cc1c(CC(=O)O)c2cccnc2n1Cc1ccc(S(C)(=O)=O)cc1C(F)(F)F	98
Cc1noc(-c2ccc(-c3ccc(CC(=O)O)cc3)cc2)c1NC(=O)O[C@H](C)c1ccccc1Cl	95
O=C(CCCc1ccccc1)Nc1nc2ccccc2c(=O)s1	97

The recorded Population Normal (%) for entry NCCc1cn(S(=O)(=O)c2c(Cl)nc3sccn23)c2ccccc12.O=C(O)C(=O)O equals 96

Population Normal (%) reading for CCCCCC(O)/C=C/[C@H]1C(=O)CC(O)C1C/C=C\CCCC(=O)O (stereo partly specified) : 98

# compound O=C1[C@H](Cc2ccc(O)cc2)N2C(=O)CCN(C(=O)NCc3ccccc3)[C@H]2CN1Cc1cccc2ccccc12 ; its Population Normal (%) = 95

What the record says about CC[C@@H](C)Nc1nc(C)nc2c(-c3ccc(OC)nc3C)c(C)nn12 : Population Normal (%) is 97

The recorded Population Normal (%) for entry Cc1sc2c(c1C)C(c1ccc(Cl)cc1)=N[C@@H](CC(=O)NCCCCCCCCNC(=O)COc1cccc3c1C(=O)N(C1CCC(=O)NC1=O)C3=O)c1nnc(C)n1-2 (stereo partly specified) equals 97

Population Normal (%) recorded for this compound, COc1cccc2c1c(NS(=O)(=O)c1ccc(Cl)s1)nn2Cc1cccc(CNC(=O)C(C)(C)O)c1 , is 97

According to the records, this compound CC(C)c1noc(N2CCC(COc3ccc(-c4ccc(S(C)(=O)=O)cc4)nc3)CC2)n1 displays Population Normal (%) of 96

CN(C)C(=O)Cn1cc(-c2ccc(-c3cncc4ccccc34)cc2)cn1 yielded Population Normal (%) of 91

Population Normal (%) for CCCCC(=O)N(Cc1ccc(-c2ccccc2-c2nnn[nH]2)cc1)[C@H](C(=O)O)C(C)C is 97

Recorded Population Normal (%) (compound Cc1cccc(NC(=O)CN2CCC(c3ccccn3)CC2)c1.Cl.Cl ): 97

Population Normal (%) measured on CC(=O)Nc1cccc2c1c(Sc1ccc(Cl)cc1)c(C)n2CC(=O)O = 98

Origin of values: ChEMBL document CHEMBL5058577
